Data origin, for the record: paper PMC4912218

assay: in vivo; details: in vivo
Label key: class 1 means LC50 at 24 h under 5 µg/mL; class 0 means LC50 at 24 h of 5 µg/mL or more.

[[record]]
compound = "NC(=O)N1c2ccccc2C=Cc2ccccc21 [Carbamazepine]"
class_assignment = "class 0"

[[record]]
compound = "CN(C)CCCN1c2ccccc2CCc2ccccc21 [Imipramine]"
class_assignment = "class 1"

[[record]]
compound = "Cc1ccc(Cl)c(Nc2ccccc2C(=O)O)c1Cl [Meclofenamic acid]"
class_assignment = "class 1"

[[record]]
compound = "Cc1ccc(C)c(OCCCC(C)(C)C(=O)O)c1 [Gemfibrozil]"
class_assignment = "class 0"

[[record]]
compound = "CN(C)CCC=C1c2ccccc2CCc2ccccc21 [Amitriptyline]"
class_assignment = "class 0"

[[record]]
compound = "CNCCC=C1c2ccccc2CCc2ccccc21 [Nortriptyline]"
class_assignment = "class 0"

[[record]]
compound = "O=C(O)c1ccccc1O [Salicylic acid]"
class_assignment = "class 0"

[[record]]
compound = "Oc1cc(Cl)ccc1Oc1ccc(Cl)cc1Cl [Triclosan]"
class_assignment = "class 1"

[[record]]
compound = "O=C(Nc1ccc(Cl)cc1)Nc1ccc(Cl)c(Cl)c1 [Triclocarban]"
class_assignment = "class 0"

